Readings of Inhibition of proliferation of U87-MG cells IC50 for the listed binders
Experimental System: human c-Met on cells (NCI-H441, NCI-H292, U87-MG) (human, UniProt P08581 25-1390)
Sequence (P08581 other isoform, or with tags, fused parts or gaps limits assumed): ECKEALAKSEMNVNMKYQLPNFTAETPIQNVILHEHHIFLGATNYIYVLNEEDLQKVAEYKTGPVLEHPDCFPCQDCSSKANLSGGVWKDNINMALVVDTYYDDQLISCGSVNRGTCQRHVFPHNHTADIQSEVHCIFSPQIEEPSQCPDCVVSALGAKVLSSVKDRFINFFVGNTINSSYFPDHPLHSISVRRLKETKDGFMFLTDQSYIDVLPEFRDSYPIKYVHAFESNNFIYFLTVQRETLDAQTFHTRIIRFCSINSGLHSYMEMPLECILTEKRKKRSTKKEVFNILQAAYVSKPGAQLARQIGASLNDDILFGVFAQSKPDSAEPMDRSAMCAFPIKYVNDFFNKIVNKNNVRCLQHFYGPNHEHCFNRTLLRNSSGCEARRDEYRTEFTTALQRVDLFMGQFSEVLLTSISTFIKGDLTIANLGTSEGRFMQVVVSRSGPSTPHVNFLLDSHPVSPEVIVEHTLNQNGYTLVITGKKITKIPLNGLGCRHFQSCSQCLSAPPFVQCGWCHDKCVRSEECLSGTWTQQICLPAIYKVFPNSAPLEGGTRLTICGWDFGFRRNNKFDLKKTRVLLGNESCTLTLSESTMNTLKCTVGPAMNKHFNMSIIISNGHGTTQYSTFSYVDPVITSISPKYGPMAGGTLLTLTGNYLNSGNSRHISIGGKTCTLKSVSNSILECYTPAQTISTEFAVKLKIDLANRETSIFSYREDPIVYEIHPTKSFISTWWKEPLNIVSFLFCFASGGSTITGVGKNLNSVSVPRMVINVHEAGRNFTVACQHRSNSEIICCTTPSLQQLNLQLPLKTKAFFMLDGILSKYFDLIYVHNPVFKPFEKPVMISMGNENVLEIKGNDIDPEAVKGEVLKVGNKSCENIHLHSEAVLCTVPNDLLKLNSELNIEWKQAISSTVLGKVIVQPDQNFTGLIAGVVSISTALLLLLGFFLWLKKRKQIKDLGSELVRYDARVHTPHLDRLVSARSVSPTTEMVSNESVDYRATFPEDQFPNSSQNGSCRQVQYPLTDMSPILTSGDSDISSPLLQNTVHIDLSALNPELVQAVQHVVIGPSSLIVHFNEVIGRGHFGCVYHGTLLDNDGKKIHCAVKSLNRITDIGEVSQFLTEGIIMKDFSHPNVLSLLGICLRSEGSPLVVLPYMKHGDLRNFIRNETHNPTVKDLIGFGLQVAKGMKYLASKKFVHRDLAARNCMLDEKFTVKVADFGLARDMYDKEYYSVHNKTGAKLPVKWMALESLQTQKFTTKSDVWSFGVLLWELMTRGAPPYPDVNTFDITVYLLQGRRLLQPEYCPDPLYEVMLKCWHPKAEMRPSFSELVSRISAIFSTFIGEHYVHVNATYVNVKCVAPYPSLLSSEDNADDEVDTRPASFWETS
Assay Notes: cell-based or functional assay
Measurement Label: Inhibition of proliferation of U87-MG cells IC50 (nM)

- Binder: "P114AR5P75-E9 (designed binder, not shown: small tags and cut ends) LPAPKNLVVSRVTEDSARLSWTAPDAAFDSFFIRYDEFLRSGEAIVLTVPGSERSYDLTGLKPGTEYWVTILGVKGGLVSTPLSAIFTT"
  Unit String: "nM"
  Val: 1190
- Binder: "P114AR7P92-H5 (designed binder, not shown: small tags and cut ends) LPAPKNLVVSRVTEDSARLSWTAPDAAFDSFWIRYLEFLLGGEAIVLTVPGSERSYDLTGLKPGTEYVVQIMGVKGGTVSPPLSAIFTT"
  Unit String: "nM"
  Val: 672
- Binder: "P114AR7P94-A3 (designed binder, not shown: small tags and cut ends) LPAPKNLVVSRVTEDSARLSWTAPDAAFDSFWIRYFEFLGSGEAIVLTVPGSERSYDLTGLKPGTEYVVNIMGVKGGKISPPLSAIFTT"
  Unit String: "nM"
  Val: 9.3
- Binder: "P114AR7P95-E3 (designed binder, not shown: small tags and cut ends) LPAPKNLVVSRVTEDSARLSWTAPDAAFDSFWIRYFEFLGSGEAIVLTVPGSERSYDLTGLKPGTEYVVQIMGVKGGTVSPPLSAIFTT"
  Unit String: "nM"
  Val: 209
